What pIC50 was measured for each of the following?
system: subgenomic HCV replicon in Huh-7 cells; test: Cell-Based HCV Replication Assay (replicon, NS3 Cell-ELISA); set-up: species or system hepatitis C virus (HCV); settings: Hepatitis C virus; Huh-7 cells with subgenomic HCV replicon; NS3 expression by Cell-ELISA; 96 hours incubation; read-out: Cell based HCV Replication Assay-IC50
Reminder that pIC50 means the negative base-10 logarithm of the concentration expressed in mol/L.

[Q] Field: pIC50 (subgenomic HCV replicon in Huh-7 cells). Entry: C=CC1C[C@]1(NC(=O)[C@@H]1C[C@@H]2CN1C(=O)[C@H](C1CCCCC1)NC(=O)N1CCC(CC1)OCCC/C=C/c1cc3c(cc(OCC)nc3cc1OC)O2)C(=O)NS(=O)(=O)C1CC1 (stereo in doubt)
[A] 8.00

[Q] Field: pIC50 (subgenomic HCV replicon in Huh-7 cells). Entry: CC[C@@H]1C[C@]1(NC(=O)[C@@H]1C[C@@H]2CN1C(=O)[C@H](C1CCCC1)NC(=O)N1CC[C@@H](C1)OCCC/C=C/c1cc3ccc(OC)cc3nc1O2)C(=O)NS(=O)(=O)C1CC1
[A] 8.40

[Q] Field: pIC50 (subgenomic HCV replicon in Huh-7 cells). Entry: C=C[C@@H]1C[C@]1(NC(=O)[C@@H]1C[C@@H]2CN1C(=O)[C@H](C1CCCCC1)NC(=O)N1CC(C1)OCCC/C=C/c1cc3c(cc(OCC)nc3cc1OC)O2)C(=O)NS(=O)(=O)C1CC1
[A] 7.72

[Q] Field: pIC50 (subgenomic HCV replicon in Huh-7 cells). Entry: C=C[C@@H]1C[C@]1(NC(=O)C1C[C@@H]2CN1C(=O)[C@H](C1CCCC1)NC(=O)N1CC[C@@H](C1)OCCC/C=C/c1cc3ccc(OC)cc3nc1O2)C(=O)NS(=O)(=O)C1CC1 (stereo partly drawn)
[A] 8.40

[Q] Field: pIC50 (subgenomic HCV replicon in Huh-7 cells). Entry: C=C[C@@H]1C[C@]1(NC(=O)[C@@H]1C[C@@H]2CN1C(=O)[C@H](C1CCCCC1)NC(=O)N1CCC[C@H](CCCCc3cc4c(cc(-c5ccccc5)nc4cc3OC)O2)C1)C(=O)NS(=O)(=O)C1CC1
[A] 7.62

[Q] Field: pIC50 (subgenomic HCV replicon in Huh-7 cells). Entry: C=C[C@@H]1C[C@]1(NC(=O)[C@@H]1C[C@@H]2CN1C(=O)[C@H](C1CCCC1)NC(=O)N1CC[C@@H](C1)OCCCc1ccc3nc(OCC)nc(c3c1)O2)C(=O)NS(=O)(=O)C1CC1
[A] 7.03

[Q] Field: pIC50 (subgenomic HCV replicon in Huh-7 cells). Entry: C=C[C@@H]1C[C@]1(NC(=O)[C@@H]1C[C@@H]2CN1C(=O)[C@H](C1CCCCC1)NC(=O)N1CCC[C@@H](C1)OCCCc1cc3c(nccc3cc1OC)O2)C(=O)NS(=O)(=O)C1CC1
[A] 8.15

[Q] Field: pIC50 (subgenomic HCV replicon in Huh-7 cells). Entry: C=C[C@@H]1C[C@]1(NC(=O)[C@@H]1C[C@@H]2CN1C(=O)[C@H](C(C)(C)C)NC(=O)N1CCC[C@H]1CC/C=C/c1cccc3c1CN(C3)C(=O)O2)C(=O)NS(=O)(=O)C1CC1
[A] 6.59

[Q] Field: pIC50 (subgenomic HCV replicon in Huh-7 cells). Entry: C=C[C@@H]1C[C@]1(NC(=O)[C@@H]1C[C@@H]2CN1C(=O)[C@H](C1CCCCC1)NC(=O)N1CCC[C@@H](C1)OCCCc1cc3c(cc(-c4ccccc4)nc3cc1OC)O2)C(=O)NS(=O)(=O)C1CC1
[A] 8.15

[Q] Field: pIC50 (subgenomic HCV replicon in Huh-7 cells). Entry: CCOc1cc2c3cc(c(OC)cc3n1)/C=C/CO[C@H]1CCN(C1)C(=O)N[C@@H](C1CCCC1)C(=O)N1C[C@@H](C[C@H]1C(=O)N[C@]1(C(=O)NS(=O)(=O)C3CC3)C[C@H]1CC)O2
[A] 8.15

[Q] Field: pIC50 (subgenomic HCV replicon in Huh-7 cells). Entry: C=C[C@@H]1C[C@]1(NC(=O)[C@@H]1C[C@@H]2CN1C(=O)[C@H](C1CCCC1)NC(=O)N1CC[C@H](C1)OCCC/C=C/c1cc3ccc(OC)cc3nc1O2)C(=O)NS(=O)(=O)C1CC1
[A] 7.70

[Q] Field: pIC50 (subgenomic HCV replicon in Huh-7 cells). Entry: C=C[C@@H]1C[C@]1(NC(=O)[C@@H]1C[C@@H]2CN1C(=O)[C@H](C1CCCC1)NC(=O)N1CC[C@@H](C1)OC/C=C/c1cc3c(cc(OCC)nc3cc1OC)O2)C(=O)NS(=O)(=O)C1CC1
[A] 7.96

[Q] Field: pIC50 (subgenomic HCV replicon in Huh-7 cells). Entry: C=C[C@@H]1C[C@]1(NC(=O)[C@@H]1C[C@@H]2CN1C(=O)[C@H](C1CCCC1)NC(=O)N1CC[C@@H](C1)OCCCCCc1cc3ccc(OC)cc3nc1O2)C(=O)NS(=O)(=O)C1CC1
[A] 8.15

[Q] Field: pIC50 (subgenomic HCV replicon in Huh-7 cells). Entry: C=CC1C[C@]1(NC(=O)[C@@H]1C[C@@H]2CN1C(=O)[C@H](C1CCCCC1)NC(=O)N1CCC(CC1)OCCCCCc1cc3c(cc(OCC)nc3cc1OC)O2)C(=O)NS(=O)(=O)C1CC1 (stereo in doubt)
[A] 8.15

[Q] Field: pIC50 (subgenomic HCV replicon in Huh-7 cells). Entry: C=C[C@@H]1C[C@]1(NC(=O)[C@@H]1C[C@@H]2CN1C(=O)[C@H](C1CCCC1)NC(=O)N1CCC[C@@H]1COCCCc1ccc3nc(OCC)nc(c3c1)O2)C(=O)NS(=O)(=O)C1CC1
[A] 8.22

[Q] Field: pIC50 (subgenomic HCV replicon in Huh-7 cells). Entry: C=C[C@@H]1C[C@]1(NC(=O)[C@@H]1C[C@@H]2CN1C(=O)[C@H](C1CCCCC1)NC(=O)N1CC[C@@H](C1)OC/C=C/c1cc3c(cc(OCC)nc3cc1OC)O2)C(=O)NS(=O)(=O)C1CC1
[A] 8.05

[Q] Field: pIC50 (subgenomic HCV replicon in Huh-7 cells). Entry: C=C[C@@H]1C[C@]1(NC(=O)[C@@H]1C[C@@H]2CN1C(=O)[C@H](C(C)(C)C)NC(=O)N1CCC[C@@H]1CC/C=C/c1cccc3c1CN(C3)C(=O)O2)C(=O)NS(=O)(=O)C1CC1
[A] 7.80

# credit: patent US8591878B2
